# Test system: HAP1 MTAP-intact cell line
# test_description: SDMA in-cell western assay, HAP1 MTAP-intact
# Format: cell-based
# experimental_parameters: Homo sapiens, HAP1, SDMA in-cell western, HAP1 MTAP-intact; read-out: MTAP HAP1 intact IC50
pIC50: −log10 of the molar value.

compound	pIC50
C[C@H]1CC[C@H](c2ccc3sc(C(F)(F)F)nc3c2)N(C(=O)C(=O)Nc2cncc(C(N)=O)c2)C1 (single isomer, unassigned)	6.00 to 7.00
C[C@@H]1CC[C@H](c2ccc(NCC(=O)N(C)C)cc2)N(C(=O)C(=O)Nc2cncc(C(N)=O)c2)C1 (racemic)	< 6.00
C[C@@H]1CC[C@@H](c2ccc(-n3cccn3)cc2)N(C(=O)C(=O)Nc2cncc(C(N)=O)c2)C1 (racemic)	< 6.00
Cc1cc(NC(=O)C(=O)N2C[C@H](C)CC[C@H]2c2ccc(S(C)(=O)=O)cc2)cnc1N (racemic)	< 6.00
Cc1cc(NC(=O)C(=O)N2C[C@@H](C)CC[C@@H]2[C@H]2CCC[C@@H](O)C2)cnc1N (single isomer, unassigned)	< 6.00
CCc1cc(NC(=O)C(=O)N2C[C@@H](C)CC[C@@H]2c2ccc(N)nc2)cnc1N (single isomer, unassigned)	6.00 to 7.00
CCc1cc(NC(=O)C(=O)N2C[C@@H](C)CC[C@@H]2c2ccc(N3CCC(CN(C)CC)CC3)cc2)cnc1N	6.00 to 7.00
Cc1cc(NC(=O)C(=O)N2C[C@H](C)CC[C@H]2c2ccc(NC3COC3)cc2)cnc1N (racemic)	6.00 to 7.00
Cc1cc(NC(=O)C(=O)N2C[C@H](C)CC[C@H]2c2cccnc2)cnc1N (single isomer, unassigned)	6.00 to 7.00
CNc1nc2cc([C@@H]3CC[C@@H](C)CN3C(=O)C(=O)Nc3cnc(OC)c(C(N)=O)c3)ccc2s1 (single isomer, unassigned)	< 6.00
COc1ncc(NC(=O)C(=O)N2C[C@@H](C)CC[C@@H]2c2cccc(OCCN(C)C)c2)cc1C(N)=O	< 6.00
Cc1cc(NC(=O)C(=O)N2C[C@@H](C)CC[C@@H]2c2cc(Cl)cc(Cl)c2)cnc1N (single isomer, unassigned)	< 6.00
Cc1ncc(NC(=O)C(=O)N2C[C@@H](C)CC[C@@H]2c2ccc3c(c2)CCC(=O)N3)cc1C(F)F (single isomer, unassigned)	< 6.00
Cc1cc(NC(=O)C(=O)N2CCC(C(=O)C(C)C)C[C@H]2c2ccc3c(c2)CCC(=O)N3)cnc1N (mixture of isomers)	< 6.00

###

# assay_target: PRMT5 (Homo sapiens, UniProt O14744)
# Construct: purchased Viva (custom protein)
# Sequence (O14744 whole entry): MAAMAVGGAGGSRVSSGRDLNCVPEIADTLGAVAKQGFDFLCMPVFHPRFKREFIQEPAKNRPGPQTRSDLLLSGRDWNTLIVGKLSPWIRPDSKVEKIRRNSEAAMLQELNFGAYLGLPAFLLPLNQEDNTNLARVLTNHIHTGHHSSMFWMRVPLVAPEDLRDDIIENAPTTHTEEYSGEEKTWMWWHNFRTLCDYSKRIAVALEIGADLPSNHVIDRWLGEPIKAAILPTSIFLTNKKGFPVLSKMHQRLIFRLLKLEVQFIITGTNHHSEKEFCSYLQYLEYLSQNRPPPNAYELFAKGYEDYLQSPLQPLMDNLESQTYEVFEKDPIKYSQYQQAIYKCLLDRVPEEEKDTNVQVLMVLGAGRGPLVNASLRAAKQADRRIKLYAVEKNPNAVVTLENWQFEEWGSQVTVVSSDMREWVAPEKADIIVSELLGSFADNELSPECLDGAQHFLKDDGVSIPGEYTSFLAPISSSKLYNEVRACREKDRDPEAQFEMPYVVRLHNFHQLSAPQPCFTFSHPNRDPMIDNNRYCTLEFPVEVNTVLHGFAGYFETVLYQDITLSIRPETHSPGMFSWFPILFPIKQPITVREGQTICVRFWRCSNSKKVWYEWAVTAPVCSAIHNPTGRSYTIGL
# Sequence (Q9BQA1 whole entry partner): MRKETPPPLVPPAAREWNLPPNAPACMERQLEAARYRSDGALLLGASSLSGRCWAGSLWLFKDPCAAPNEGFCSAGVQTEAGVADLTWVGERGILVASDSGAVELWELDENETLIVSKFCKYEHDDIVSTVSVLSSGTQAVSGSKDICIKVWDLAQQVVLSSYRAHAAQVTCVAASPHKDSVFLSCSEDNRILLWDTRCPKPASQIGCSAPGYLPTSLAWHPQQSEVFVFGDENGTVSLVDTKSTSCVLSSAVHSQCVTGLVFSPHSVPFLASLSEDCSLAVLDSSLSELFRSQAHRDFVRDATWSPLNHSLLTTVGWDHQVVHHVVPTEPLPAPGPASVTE
# test_description: PRMT5 biochemical IC50 assay with no cofactor
# experimental_parameters: PRMT5, no cofactor; read-out: No Cofactor/rel IC50
assay_metric: IC50

compound	assay_target	result_value
CCc1cc(NC(=O)C(=O)N2C[C@@H](C)CC[C@@H]2c2ccc3sc([C@@H]4CN(C)CCO4)nc3c2)cnc1N	PRMT5 (Homo sapiens, UniProt O14744)	< 50 nM
Cc1cc(NC(=O)C(=O)N2C[C@H](C)CC[C@H]2c2cccc(S(C)(=O)=O)c2)cnc1C (racemic)	PRMT5 (Homo sapiens, UniProt O14744)	50 to 500 nM
Cc1cc(NC(=O)C(=O)N2C[C@@H](C)CC[C@@H]2c2ccc3[nH]ncc3c2)cnc1C (single isomer, unassigned)	PRMT5 (Homo sapiens, UniProt O14744)	< 50 nM
C[C@@H]1CC[C@@H](c2ccc3c(c2)CNC3=O)N(C(=O)C(=O)Nc2cncc(C(N)=O)c2)C1 (single isomer, unassigned)	PRMT5 (Homo sapiens, UniProt O14744)	50 to 500 nM
COc1ncc(NC(=O)C(=O)N2C[C@@H](C)CC[C@@H]2c2ccc(-c3nccs3)cc2)cc1C(N)=O (single isomer, unassigned)	PRMT5 (Homo sapiens, UniProt O14744)	50 to 500 nM
Cc1cc(NC(=O)C(=O)N2C[C@@H](C)CC[C@H]2C23CC(O)(C2)C3)cnc1N (racemic)	PRMT5 (Homo sapiens, UniProt O14744)	> 500 nM
COc1ncc(NC(=O)C(=O)N2C[C@@H](C)CC[C@@H]2c2ccc3sc(C(F)(F)F)nc3c2)cc1C(N)=O (single isomer, unassigned)	PRMT5 (Homo sapiens, UniProt O14744)	< 50 nM
CCc1cc(NC(=O)C(=O)N2C[C@@H](C)CC[C@@H]2c2ccn(-c3cc[nH]n3)n2)cnc1N (single isomer, unassigned)	PRMT5 (Homo sapiens, UniProt O14744)	> 500 nM
Cc1nc2cc([C@H]3CC[C@H](C)CN3C(=O)C(=O)Nc3cnc(N)c(C)c3)ccc2s1 (single isomer, unassigned)	PRMT5 (Homo sapiens, UniProt O14744)	< 50 nM

###

# assay_target: PRMT5 (Homo sapiens, UniProt O14744)
# Construct: purchased Viva (custom protein)
# test_description: PRMT5 biochemical IC50 assay with MTA as cofactor
# experimental_parameters: PRMT5, MTA as cofactor; read-out: MTA IC50

compound	assay_target	IC50
CCc1cc(NC(=O)C(=O)N2C[C@@H](C)CC[C@@H]2c2ccc3cnccc3c2)cnc1N (single isomer, unassigned)	PRMT5 (Homo sapiens, UniProt O14744)	> 500 nM
C[C@H]1CC[C@H](c2ccc3c(c2)C(=O)NC3)N(C(=O)C(=O)Nc2cncc(C(N)=O)c2)C1 (single isomer, unassigned)	PRMT5 (Homo sapiens, UniProt O14744)	> 500 nM
CCc1ncc(NC(=O)C(=O)N2C[C@@H](C)CC[C@@H]2c2ccccc2)cc1C(N)=O (racemic)	PRMT5 (Homo sapiens, UniProt O14744)	50 to 500 nM
CCc1cc(NC(=O)C(=O)N2C[C@@H](C)CC[C@@H]2c2ccc3sc(C4CCOC4)nc3c2)cnc1N (stereo partly drawn)	PRMT5 (Homo sapiens, UniProt O14744)	< 50 nM
C[C@@H]1C[C@@H](C)[C@@H](c2ccccc2)N(C(=O)C(=O)Nc2cncc(C(N)=O)c2)C1 (single isomer, unassigned)	PRMT5 (Homo sapiens, UniProt O14744)	> 500 nM
CCc1cc(NC(=O)C(=O)N2C[C@H](C)[C@H](OC)C[C@H]2c2ccc3scnc3c2)cnc1N (single isomer, unassigned)	PRMT5 (Homo sapiens, UniProt O14744)	> 500 nM
C[C@@H]1CC[C@@H](c2ccc3[nH]ncc3c2F)N(C(=O)C(=O)Nc2cncc(C(N)=O)c2)C1 (single isomer, unassigned)	PRMT5 (Homo sapiens, UniProt O14744)	< 50 nM
C[C@@H]1CC[C@@H](c2cccc(Cl)c2)N(C(=O)C(=O)Nc2cncc(C(N)=O)c2)C1 (racemic) [Compound 174]	PRMT5 (Homo sapiens, UniProt O14744)	< 50 nM
C[C@@H]1CC[C@@](C)(c2ccccc2)N(C(=O)C(=O)Nc2cncc(C(N)=O)c2)C1 (racemic)	PRMT5 (Homo sapiens, UniProt O14744)	50 to 500 nM
C[C@@H]1CC[C@@H](c2ccc(-c3cc[nH]n3)cc2)N(C(=O)C(=O)Nc2cncc(C(N)=O)c2)C1 (single isomer, unassigned)	PRMT5 (Homo sapiens, UniProt O14744)	> 500 nM
Cc1cc(NC(=O)C(=O)N2CC[C@H](C#N)C[C@@H]2c2ccccc2)cnc1N (single isomer, unassigned)	PRMT5 (Homo sapiens, UniProt O14744)	> 500 nM
COc1ncc(NC(=O)C(=O)N2C[C@@H](C)C(F)(F)C[C@@H]2c2ccc(C)nc2)cc1C(N)=O (single isomer, unassigned)	PRMT5 (Homo sapiens, UniProt O14744)	< 50 nM
CCc1cc(NC(=O)C(=O)N2C[C@@H](C)CC[C@@H]2c2ccc3sc(C4CCN(C5COC5)CC4)nc3c2)cnc1N	PRMT5 (Homo sapiens, UniProt O14744)	< 50 nM
C[C@@H]1CC[C@@H](c2ccc(Cl)c(C(F)(F)F)c2)N(C(=O)C(=O)Nc2cncc(C(N)=O)c2)C1 (racemic)	PRMT5 (Homo sapiens, UniProt O14744)	50 to 500 nM
Cc1cc(NC(=O)C(=O)N2C[C@@H](C)[C@H](CC(C)C)C[C@@H]2c2ccc3scnc3c2)cnc1N (single isomer, unassigned)	PRMT5 (Homo sapiens, UniProt O14744)	> 500 nM
C[C@H]1CC[C@H](c2ccc3sc(C4CCN(C)CC4)nc3c2)N(C(=O)C(=O)Nc2cnc(N)c([C@@H]3CCOC3)c2)C1 (single isomer, unassigned)	PRMT5 (Homo sapiens, UniProt O14744)	< 50 nM
CNc1ccc([C@@H]2CCC[C@H](C)N2C(=O)C(=O)Nc2cncc(C(N)=O)c2)cn1 (racemic)	PRMT5 (Homo sapiens, UniProt O14744)	50 to 500 nM
Cc1cc(NC(=O)C(=O)N2C[C@H](C)CC[C@H]2c2ccccc2)cnc1C (single isomer, unassigned)	PRMT5 (Homo sapiens, UniProt O14744)	< 50 nM
